FYI, the data here is from paper PMC10709440.

- target_desc: Drosophila OR85b (Drosophila melanogaster, UniProt Q9VHQ7)
- Construct: expressed in transfected cells
- Sequence (Q9VHQ7 1-390): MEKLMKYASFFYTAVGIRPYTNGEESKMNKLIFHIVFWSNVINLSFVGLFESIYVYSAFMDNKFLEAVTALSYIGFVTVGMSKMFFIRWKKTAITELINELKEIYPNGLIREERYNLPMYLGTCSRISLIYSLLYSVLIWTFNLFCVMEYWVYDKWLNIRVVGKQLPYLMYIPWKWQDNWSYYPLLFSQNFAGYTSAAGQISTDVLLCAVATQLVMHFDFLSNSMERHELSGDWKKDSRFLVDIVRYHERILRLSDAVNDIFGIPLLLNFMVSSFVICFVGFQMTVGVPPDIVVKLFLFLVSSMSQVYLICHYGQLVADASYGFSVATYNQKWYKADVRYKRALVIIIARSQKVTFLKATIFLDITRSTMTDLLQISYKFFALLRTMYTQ
- Sequence (Q9VNB5 1-486 partner): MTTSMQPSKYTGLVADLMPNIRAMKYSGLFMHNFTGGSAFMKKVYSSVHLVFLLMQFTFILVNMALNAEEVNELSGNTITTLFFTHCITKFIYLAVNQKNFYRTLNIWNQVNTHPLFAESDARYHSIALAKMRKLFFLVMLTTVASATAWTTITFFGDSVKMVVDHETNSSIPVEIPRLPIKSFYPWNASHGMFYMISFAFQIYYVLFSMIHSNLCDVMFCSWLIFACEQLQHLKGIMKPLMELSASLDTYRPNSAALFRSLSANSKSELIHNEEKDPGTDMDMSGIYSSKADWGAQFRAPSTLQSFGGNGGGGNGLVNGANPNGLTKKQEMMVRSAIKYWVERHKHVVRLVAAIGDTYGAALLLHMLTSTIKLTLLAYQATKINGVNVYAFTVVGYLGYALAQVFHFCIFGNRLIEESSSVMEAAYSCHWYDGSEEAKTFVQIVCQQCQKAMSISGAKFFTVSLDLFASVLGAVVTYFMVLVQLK
- method_description: Calcium ion fluorescence (GCaMP6) assay, OR85b stable HEK293 cell line
- Format: cell-based
- condition_notes: LOG EC50, AVERAGE, average of 5 biological replicates
pEC50: −log10 of the molar value.

sample_smiles: CCCCCC(C)=O
pEC50: 4.16

* * *

The following compounds are listed with their measured activation at 1 µM values.
- target_desc: Drosophila OR10a (Drosophila melanogaster, UniProt Q9VYZ1)
- Construct: expressed in transfected cells
- Sequence (Q9VYZ1 whole entry, one chain of several): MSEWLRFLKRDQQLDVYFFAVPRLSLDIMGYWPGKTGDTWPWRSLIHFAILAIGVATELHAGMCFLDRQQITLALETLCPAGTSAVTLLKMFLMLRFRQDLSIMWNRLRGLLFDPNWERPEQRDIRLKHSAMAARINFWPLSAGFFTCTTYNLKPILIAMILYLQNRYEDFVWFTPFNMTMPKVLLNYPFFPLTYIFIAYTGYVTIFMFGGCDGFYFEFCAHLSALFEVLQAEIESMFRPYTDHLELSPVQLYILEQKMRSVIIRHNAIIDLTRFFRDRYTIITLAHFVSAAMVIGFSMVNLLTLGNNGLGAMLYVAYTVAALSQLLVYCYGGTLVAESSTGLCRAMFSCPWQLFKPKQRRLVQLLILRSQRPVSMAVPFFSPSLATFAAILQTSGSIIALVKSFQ
- method_description: Calcium ion fluorescence (GCaMP6) assay, OR10a stable HEK293 cell line
- Format: cell-based
- condition_notes: HEK293, read-out: OR10a response (VUAA1-normalized response), VOC concentration 1 μM

compound: C=C1CC[C@H]2O[C@]2(C)CC[C@@H]2[C@@H]1CC2(C)C [(-)-caryophyllene oxide]
unit_descriptor: %
activation at 1 µM: 0

compound: CC(=O)OCCC(C)C [isopentyl acetate]
unit_descriptor: %
activation at 1 µM: 9

compound: C=CCc1ccc(O)c(OC)c1
unit_descriptor: %
activation at 1 µM: 8.49

compound: CC1=CC[C@@H](C(C)(C)O)CC1
unit_descriptor: %
activation at 1 µM: 0

compound: C=CC(O)C/C=C\CC (stereo not drawn)
unit_descriptor: %
activation at 1 µM: 0

compound: COc1cccc(OC)c1
unit_descriptor: %
activation at 1 µM: 0
